Attribution: patent US11076597B2

# Target of assay: PYL1 receptor-HAB1 protein phosphatase complex (Arabidopsis thaliana)
# Construct: made in house; host or cells: E. coli BL21 (DE3)
# Sequence (Q8VZS8 36-211): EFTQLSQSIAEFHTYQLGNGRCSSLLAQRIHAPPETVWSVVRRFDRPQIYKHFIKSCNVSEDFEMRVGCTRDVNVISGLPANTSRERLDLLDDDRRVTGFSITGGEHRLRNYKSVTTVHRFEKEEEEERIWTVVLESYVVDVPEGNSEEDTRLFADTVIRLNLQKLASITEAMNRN
# Sequence (Q9CAJ0 172-511 partner limits assumed): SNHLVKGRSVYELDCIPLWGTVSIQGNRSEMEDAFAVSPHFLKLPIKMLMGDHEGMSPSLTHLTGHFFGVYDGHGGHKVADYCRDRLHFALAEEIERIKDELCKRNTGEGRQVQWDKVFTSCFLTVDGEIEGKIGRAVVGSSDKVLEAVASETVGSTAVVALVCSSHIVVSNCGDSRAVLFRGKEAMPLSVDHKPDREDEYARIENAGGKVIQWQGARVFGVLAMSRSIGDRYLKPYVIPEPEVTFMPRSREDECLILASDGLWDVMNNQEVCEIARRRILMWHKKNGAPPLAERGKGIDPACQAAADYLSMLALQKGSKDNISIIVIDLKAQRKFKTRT
# Procedure text: AlphaScreen assay: promotion of PYL1 receptor binding to PP2C protein phosphatase HAB1
# Measurement parameters: FIG. 2b; 6×His-SUMO-tagged PYL1 (aa 36-211), Biotin-tagged HAB1 (aa 172-511), 100 nM each; pH 7.4; 1.5 h room temperature; read-out: EC50
# Description: The construction method of recombinant plasmids for the Arabidopsis thaliana genes PYL1 (amino acid sequence 36-211), PYL2 (amino acid sequence 14-188) with dual tags of 6×His and SUMO sequence and the Arabidopsis thaliana gene HAB1 (amino acid sequence 172-511) with the Biotin tag sequence is described in detail in “A gate-latch-lock mechanism for hormone signaling by abscisic acid receptors” (Nature, Vol 462, 2009). […]
pEC50: −log10 of the molar value.
Measurement type: pEC50

# input Enter pEC50 (test system PYL1 receptor-HAB1 protein phosphatase complex (Arabidopsis thaliana)) for CCCN1C(=O)OC(C)c2cc(NS(=O)(=O)Cc3c(F)c(F)c(C)c(F)c3F)ccc21 (centres unmarked)
# output 6.83

# input Enter pEC50 (test system PYL1 receptor-HAB1 protein phosphatase complex (Arabidopsis thaliana)) for CCCN1C(=O)OC(C)(C)c2cc(NS(=O)(=O)Cc3c(F)c(F)c(C)c(F)c3F)ccc21
# output 6.78

----------
# Target of assay: PYL2 receptor-HAB1 protein phosphatase complex (Arabidopsis thaliana)
# Construct: made in house; host or cells: E. coli BL21 (DE3)
# Sequence (O80992 14-188): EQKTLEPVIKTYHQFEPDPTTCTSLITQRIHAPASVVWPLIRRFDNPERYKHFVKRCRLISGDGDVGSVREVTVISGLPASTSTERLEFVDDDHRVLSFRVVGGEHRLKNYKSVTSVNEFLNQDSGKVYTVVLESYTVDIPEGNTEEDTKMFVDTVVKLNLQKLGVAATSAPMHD
# Sequence (Q9CAJ0 172-511 partner limits assumed): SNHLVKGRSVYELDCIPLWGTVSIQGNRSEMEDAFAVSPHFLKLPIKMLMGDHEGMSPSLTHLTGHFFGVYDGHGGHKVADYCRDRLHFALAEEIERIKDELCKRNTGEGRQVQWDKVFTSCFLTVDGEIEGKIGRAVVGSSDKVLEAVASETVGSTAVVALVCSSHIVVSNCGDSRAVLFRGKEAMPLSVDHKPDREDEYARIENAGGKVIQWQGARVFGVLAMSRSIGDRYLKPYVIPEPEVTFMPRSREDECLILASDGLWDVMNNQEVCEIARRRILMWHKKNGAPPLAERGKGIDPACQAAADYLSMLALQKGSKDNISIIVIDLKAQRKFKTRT
# Procedure text: AlphaScreen assay: promotion of PYL2 receptor binding to PP2C protein phosphatase HAB1
# Measurement parameters: FIG. 2e; 6×His-SUMO-tagged PYL2 (aa 14-188), Biotin-tagged HAB1 (aa 172-511), 100 nM each; pH 7.4; 1.5 h room temperature; read-out: EC50
Measurement type: EC50 (nM)

// below: answered compounds
# input Return EC50 (reported value) for this compound: CCN1C(=O)OC(C)c2cc(NS(=O)(=O)Cc3c(F)c(F)c(C)c(F)c3F)ccc21 (centres unmarked) [Compound 0706]
# output 101

# input Return EC50 (reported value) for this compound: Cc1c(F)c(F)c(CS(=O)(=O)Nc2ccc3c(c2)C(C)OC(=O)N3CC(C)C)c(F)c1F (centres unmarked) [Compound 0713]
# output 181

1 = Cc1c(F)c(F)c(CS(=O)(=O)Nc2ccc3c(c2)C(C)OC(=O)N3C(C)C)c(F)c1F (centres unmarked) [Compound 0708]
2 = CCCN1C(=O)OC(C)c2cc(NS(=O)(=O)Cc3c(F)c(F)c(C)c(F)c3F)ccc21 (centres unmarked) [Compound 0224]
# input Kindly compare 1 with 2 and tell me which has the lower EC50 figure. Mark your answer with the label of the selected entry.
# output 2
